Conditions: in toluene, 308.15 K
measurement-label: solubility (mole fraction)
Keep it simple and answer with nothing but the number.

Value of solubility (mole fraction) reported for the molecule Cc1cc([N+](=O)[O-])ccc1N is 0.00584

* * *

Conditions: in ethanol, 303.15 K
measurement-label: solubility (mole fraction)
Keep it simple and answer with nothing but the number.

Value of solubility (mole fraction) reported for the molecule Cc1cc([N+](=O)[O-])ccc1N is 0.018

* * *

Conditions: in cyclohexane, 305.65 K
measurement-label: solubility (mole fraction)
Keep it simple and answer with nothing but the number.

Value of solubility (mole fraction) reported for the compound Cc1cc([N+](=O)[O-])ccc1N is 9.26e-05

* * *

Conditions: in 2-butanone, 295.65 K
measurement-label: solubility (mole fraction)
Keep it simple and answer with nothing but the number.

Value of solubility (mole fraction) reported for the compound Cc1cc([N+](=O)[O-])ccc1N is 0.127

* * *

Details: in acetone, 285.65 K
measurement-label: solubility (mole fraction)

Value of solubility (mole fraction) reported for the compound Cc1cc([N+](=O)[O-])ccc1N is 0.0933

* * *

Details: in n-butanol, 303.15 K
measurement-label: solubility (mole fraction)
Keep it simple and answer with nothing but the number.

Value of solubility (mole fraction) reported for the compound Cc1cc([N+](=O)[O-])ccc1N is 0.0145

* * *

Settings: in methanol, 298.15 K
measurement-label: solubility (mole fraction)
Keep it simple and answer with nothing but the number.

Value of solubility (mole fraction) reported for the molecule Cc1cc([N+](=O)[O-])ccc1N is 0.0168

* * *

Conditions: in ethyl acetate, 310.65 K
measurement-label: solubility (mole fraction)
Keep it simple and answer with nothing but the number.

Value of solubility (mole fraction) reported for the molecule Cc1cc([N+](=O)[O-])ccc1N is 0.151

* * *

Conditions: in 2-butanone, 290.65 K
measurement-label: solubility (mole fraction)
Keep it simple and answer with nothing but the number.

Value of solubility (mole fraction) reported for the compound Cc1cc([N+](=O)[O-])ccc1N is 0.114

* * *

Conditions: in toluene, 285.65 K
measurement-label: solubility (mole fraction)
Keep it simple and answer with nothing but the number.

Value of solubility (mole fraction) reported for the molecule Cc1cc([N+](=O)[O-])ccc1N is 0.0023

* * *

Settings: in methanol, 305.65 K
measurement-label: solubility (mole fraction)
Keep it simple and answer with nothing but the number.

Value of solubility (mole fraction) reported for the molecule Cc1cc([N+](=O)[O-])ccc1N is 0.0213

* * *

Conditions: in 2-butanone, 293.15 K
measurement-label: solubility (mole fraction)
Keep it simple and answer with nothing but the number.

Value of solubility (mole fraction) reported for the compound Cc1cc([N+](=O)[O-])ccc1N is 0.12

* * *

Conditions: in ethyl acetate, 308.15 K
measurement-label: solubility (mole fraction)
Keep it simple and answer with nothing but the number.

Value of solubility (mole fraction) reported for the compound Cc1cc([N+](=O)[O-])ccc1N is 0.142

* * *

Conditions: in ethanol, 283.15 K
measurement-label: solubility (mole fraction)

Value of solubility (mole fraction) reported for the molecule Cc1cc([N+](=O)[O-])ccc1N is 0.00887

* * *

Details: in n-propanol, 305.65 K
measurement-label: solubility (mole fraction)
Keep it simple and answer with nothing but the number.

Value of solubility (mole fraction) reported for the compound Cc1cc([N+](=O)[O-])ccc1N is 0.0176

* * *

Conditions: in cyclohexane, 295.65 K
measurement-label: solubility (mole fraction)
Keep it simple and answer with nothing but the number.

Value of solubility (mole fraction) reported for the compound Cc1cc([N+](=O)[O-])ccc1N is 5.27e-05

* * *

Conditions: in acetone, 303.15 K
measurement-label: solubility (mole fraction)
Keep it simple and answer with nothing but the number.

Value of solubility (mole fraction) reported for the compound Cc1cc([N+](=O)[O-])ccc1N is 0.142

* * *

Conditions: in ethyl acetate, 280.65 K
measurement-label: solubility (mole fraction)
Keep it simple and answer with nothing but the number.

Value of solubility (mole fraction) reported for the compound Cc1cc([N+](=O)[O-])ccc1N is 0.0669

* * *

Settings: in ethyl acetate, 305.65 K
measurement-label: solubility (mole fraction)
Keep it simple and answer with nothing but the number.

Value of solubility (mole fraction) reported for the compound Cc1cc([N+](=O)[O-])ccc1N is 0.133

* * *

Details: in isopropanol, 278.15 K
measurement-label: solubility (mole fraction)
Keep it simple and answer with nothing but the number.

Value of solubility (mole fraction) reported for the compound Cc1cc([N+](=O)[O-])ccc1N is 0.00459

* * *

Settings: in acetonitrile, 298.15 K
measurement-label: solubility (mole fraction)
Keep it simple and answer with nothing but the number.

Value of solubility (mole fraction) reported for the molecule Cc1cc([N+](=O)[O-])ccc1N is 0.0566

* * *

Details: in n-propanol, 290.65 K
measurement-label: solubility (mole fraction)
Keep it simple and answer with nothing but the number.

Value of solubility (mole fraction) reported for the compound Cc1cc([N+](=O)[O-])ccc1N is 0.0103

* * *

Conditions: in isopropanol, 310.65 K
measurement-label: solubility (mole fraction)
Keep it simple and answer with nothing but the number.

Value of solubility (mole fraction) reported for the molecule Cc1cc([N+](=O)[O-])ccc1N is 0.0172

* * *

Settings: in methanol, 310.65 K
measurement-label: solubility (mole fraction)
Keep it simple and answer with nothing but the number.

Value of solubility (mole fraction) reported for the molecule Cc1cc([N+](=O)[O-])ccc1N is 0.0249

* * *

Settings: in 2-butanone, 285.65 K
measurement-label: solubility (mole fraction)
Keep it simple and answer with nothing but the number.

Value of solubility (mole fraction) reported for the compound Cc1cc([N+](=O)[O-])ccc1N is 0.101

* * *

Conditions: in 2-butanone, 298.15 K
measurement-label: solubility (mole fraction)
Keep it simple and answer with nothing but the number.

Value of solubility (mole fraction) reported for the compound Cc1cc([N+](=O)[O-])ccc1N is 0.134

* * *

Conditions: in acetonitrile, 285.65 K
measurement-label: solubility (mole fraction)

Value of solubility (mole fraction) reported for the compound Cc1cc([N+](=O)[O-])ccc1N is 0.039

* * *

Conditions: in cyclohexane, 293.15 K
measurement-label: solubility (mole fraction)

Value of solubility (mole fraction) reported for the compound Cc1cc([N+](=O)[O-])ccc1N is 4.47e-05

* * *

Conditions: in 2-butanone, 278.15 K
measurement-label: solubility (mole fraction)
Keep it simple and answer with nothing but the number.

Value of solubility (mole fraction) reported for the compound Cc1cc([N+](=O)[O-])ccc1N is 0.0846

* * *

Settings: in n-butanol, 285.65 K
measurement-label: solubility (mole fraction)
Keep it simple and answer with nothing but the number.

Value of solubility (mole fraction) reported for the compound Cc1cc([N+](=O)[O-])ccc1N is 0.00691

* * *

Conditions: in n-butanol, 310.65 K
measurement-label: solubility (mole fraction)

Value of solubility (mole fraction) reported for the compound Cc1cc([N+](=O)[O-])ccc1N is 0.0196

* * *

Settings: in n-butanol, 295.65 K
measurement-label: solubility (mole fraction)
Keep it simple and answer with nothing but the number.

Value of solubility (mole fraction) reported for the compound Cc1cc([N+](=O)[O-])ccc1N is 0.0106

* * *

Details: in n-butanol, 278.15 K
measurement-label: solubility (mole fraction)
Keep it simple and answer with nothing but the number.

Value of solubility (mole fraction) reported for the molecule Cc1cc([N+](=O)[O-])ccc1N is 0.00492

* * *

Details: in isopropanol, 303.15 K
measurement-label: solubility (mole fraction)
Keep it simple and answer with nothing but the number.

Value of solubility (mole fraction) reported for the molecule Cc1cc([N+](=O)[O-])ccc1N is 0.0129

* * *

Details: in acetone, 298.15 K
measurement-label: solubility (mole fraction)
Keep it simple and answer with nothing but the number.

Value of solubility (mole fraction) reported for the compound Cc1cc([N+](=O)[O-])ccc1N is 0.127

* * *

Details: in toluene, 310.65 K
measurement-label: solubility (mole fraction)
Keep it simple and answer with nothing but the number.

Value of solubility (mole fraction) reported for the compound Cc1cc([N+](=O)[O-])ccc1N is 0.00645

* * *

Details: in acetone, 305.65 K
measurement-label: solubility (mole fraction)

Value of solubility (mole fraction) reported for the molecule Cc1cc([N+](=O)[O-])ccc1N is 0.151

* * *

Details: in ethanol, 313.15 K
measurement-label: solubility (mole fraction)
Keep it simple and answer with nothing but the number.

Value of solubility (mole fraction) reported for the compound Cc1cc([N+](=O)[O-])ccc1N is 0.025

* * *

Settings: in methanol, 280.65 K
measurement-label: solubility (mole fraction)
Keep it simple and answer with nothing but the number.

Value of solubility (mole fraction) reported for the compound Cc1cc([N+](=O)[O-])ccc1N is 0.00913

* * *

Settings: in n-butanol, 313.15 K
measurement-label: solubility (mole fraction)
Keep it simple and answer with nothing but the number.

Value of solubility (mole fraction) reported for the compound Cc1cc([N+](=O)[O-])ccc1N is 0.0216

* * *

Conditions: in n-propanol, 288.15 K
measurement-label: solubility (mole fraction)
Keep it simple and answer with nothing but the number.

Value of solubility (mole fraction) reported for the compound Cc1cc([N+](=O)[O-])ccc1N is 0.00939
